assay overview: Size, polydispersity index and zeta potential determination (Malvern Zetasizer)
Assay type: physicochemical
experimental context: compound encapsulated in zein micelles
Protocol: Nanoparticles (2 mg) and micelles (2 mg) were dispersed in 2 ml of purified water and bath sonicated for 1 min. They were then centrifuged at 10000 rpm for 5 min and diluted 50 times with distilled water. About 50 μl of the nanoemulsion was taken and dilated to 1 mL using distilled water. A liposome dispersion was diluted 100 times using purified water and probe sonicated for 1 min using 20% amplitude. The sizes, polydispersity indexes, and zeta potentials, were measured with a Malvern Zetasizer. […]
As shown below, each of these compounds has a reported Particle Size value.
Give your result in nm as a bare value.

Look up Particle Size: CC1=C(/C=C/C(C)=C/C=C/C(C)=C/CO)C(C)(C)CCC1
191

What measured Particle Size goes with COc1cccc2c1C(=O)c1c(O)c3c(c(O)c1C2=O)C[C@@](O)(C(=O)CO)C[C@@H]3O[C@H]1C[C@H](N)[C@H](O)[C@H](C)O1 ?
153

Particle Size for COc1cc(/C=C/C(=O)CC(=O)/C=C/c2ccc(O)c(OC)c2)ccc1O ?
124

State the recorded Particle Size for this entry: CCN(CC)c1ccc2nc3c4ccccc4c(=O)cc-3oc2c1
165
